Target: kinase panel containing either 359 or 386 distinct kinases
Test: Selectivity score S10 from competition binding against a panel of kinases
Conditions: compounds at 10 μM; panel of 386 distinct kinases
Readout: Kinase specificty: S(10)-386 panel

Sample answers from the record:
CC1(CCNc2ccc(-c3ccc(CC(=O)Nc4cc(C(C)(C)C)on4)cc3)cn2)COC1 [Example 122]    A (A≦0.1)
CC(F)(F)C1(c2cc(NC(=O)Cc3ccc(-c4ccc(N)nc4F)cc3)no2)CC1 [Example 159]    A (A≦0.1)
CC1(c2cc(NC(=O)Cc3ccc(-c4ccc(N)nc4)cc3)no2)CCC1.CS(=O)(=O)O [Example 144]    B (0.1<B≦0.2 nM)
CC1(c2cc(NC(=O)Nc3ccc(-c4ccc(N)nc4)cc3)no2)CC1.CS(=O)(=O)O [Example 106]    A (A≦0.1)
CC1(c2cc(NC(=O)Cc3ccc(-c4cnc(N)c(Cl)c4)cc3)no2)CC1 [Example 160]    B (0.1<B≦0.2 nM)

Now take the following molecule into account.
stdin: Give the measured Kinase specificty: S(10)-386 panel of CC(C)(C)c1cc(NC(=O)Cc2c(F)cc(-c3ccc(N)nc3)cc2F)no1.CS(=O)(=O)O [Example 123] .
stdout: B (0.1<B≦0.2 nM)
